Tested on: CCRF-CEM
Experiment: NCI tumour cell line growth inhibition, 48 h
Calls of active or inactive are those of the source. Rule as the data show it: active = GI50 up to about 1.1 µM and inactive = higher.
Respond using exactly one of the listed classes: active, inactive

[in] Outcome? COC1(OC)N=C(N)C2(C#N)C3(C(=O)N(C(C)C)N=C3C)C12C#N (stereo not given)
[out] inactive

[in] Outcome? O=C1CC[C@H]2CNC(=O)C[C@H]2C1
[out] inactive

[in] Outcome? Cc1ccc(/N=N/C(=O)NNc2ccc(C)c([N+](=O)[O-])c2)cc1[N+](=O)[O-]
[out] inactive

[in] Outcome? Cc1cccc(/C=N/NC(=S)N2CCCC2)n1
[out] active

[in] Outcome? O=C(O)c1nc2cc(C(F)(F)F)ccc2[nH]c1=O
[out] inactive

[in] Outcome? Cc1cccc2c1Oc1ncccc1C2NC(=O)CN(C)C (stereo not given)
[out] inactive

[in] Outcome? Cc1cc(C)nc(NS(=O)(=O)c2ccc(NNc3c4ccccc4nc4c(C(=O)Nc5ccc(S(=O)(=O)Nc6cc(C)on6)cc5)cccc34)cc2)n1
[out] inactive

[in] Outcome? CC(=O)CC1CCC(=O)CCC(=O)OC(CC(C)=O)CCC(=O)CCC(=O)O1 (stereo not given)
[out] inactive

[in] Outcome? O=C1c2cc3ccccc3cc2C2(c3ccc(Cl)cc3)NCCN12 (stereo not given)
[out] inactive

[in] Outcome? Cc1[nH]n(C2=NCCN2)c(=O)c1Cc1ccccc1
[out] inactive

[in] Outcome? COc1cc2c(cc1OC)[C@]1(O)C(=O)c3ccc4c(c3O[C@@H]1CO2)C[C@H](C(C)(C)O)O4
[out] inactive

[in] Outcome? N#CC1CC(c2ccccc2)Nc2cc(Cl)ccc2N1 (stereo not given)
[out] inactive

[in] Outcome? Br/C(=N\N=c1/nn[nH][nH]1)c1ccncc1
[out] inactive

[in] Outcome? CCOC(=O)/C=C(/OCC)[C@@H]1C(C(=O)c2ccc(Cl)cc2)[C@H]1/C(=C\C(=O)OCC)OCC (stereo not given in full)
[out] inactive

[in] Outcome? COc1ccc(C(C#N)Cc2cc(OC)c(OC)c(OC)c2)cc1 (stereo not given)
[out] inactive

----------
System: SK-MEL-5
Experiment: NCI tumour cell line growth inhibition, 48 h
The source made the active and inactive calls. Rule as the data show it: active = GI50 up to about 1.1 µM and inactive = higher.
Field: GI50. Provide a value for each of the compounds that follow.

# GI50 of O=C(O)c1nc2cc(C(F)(F)F)ccc2[nH]c1=O = > 100 µM (inactive)

# GI50 of [N-]=[N+]=CC(=O)OC1CCOCC1 = > 100 µM (inactive)

# GI50 of O=C(NCCCCCCNC(=O)c1cc(-c2ccccc2)nc2ccccc12)c1cc(-c2ccccc2)nc2ccccc12 = > 100 µM (inactive)

# GI50 of Cc1ccc(-c2c(C#N)c(-c3ccccc3)c(C#N)c(=O)n2NS(=O)(=O)c2ccc(C)cc2)cc1 = 12.6 µM (inactive)

# GI50 of COc1ccc(-c2c3c(n(C4OC(CO)C(O)C(O)C4O)c(=S)c2C#N)CC(C)(C)CC3=O)cc1 (centres undefined) = > 100 µM (inactive)

# GI50 of Cc1c(F)c(N)c2c(=O)cc(-c3ccc(NC(=O)C(N)CCCNC(=N)N)c(F)c3)oc2c1F (centres undefined) = 19.7 µM (inactive)

# GI50 of Nc1nc(Cl)cc(NCC2(CO)CCC2)n1 = > 100 µM (inactive)

# GI50 of CCOC(=O)c1c(SCCN2CCCC2)n(-c2ccccc2)c(=S)n(-c2ccccc2)c1=O = 3.07 µM (inactive)

# GI50 of COc1cccc2c1C(=O)c1c(O)c3c(c(O)c1C2=O)CC(O)(C(=O)CO)CC3OC1CC(N)C(I)C(C)O1 (centres undefined) = 2.64 µM (inactive)

# GI50 of CCOC(=O)C(C)c1nc2ccc(C(F)(F)F)cc2[nH]c1=O (centres undefined) = 52.7 µM (inactive)

# GI50 of OCC1OC(O[C@H]2CN3[C@H](O)[C@@H](O)[C@H](O)[C@H]3C2O)C(O)C(O)C1O (some centres undefined) = > 100 µM (inactive)

# GI50 of NS(=O)(=O)c1nnc(NC(=O)CCC(=O)O)s1 = > 100 µM (inactive)

# GI50 of NC1(C(=O)O)CCCC1C(=O)O (centres undefined) = > 100 µM (inactive)

# GI50 of NC1CCCCC1NCCNC1CCCCC1N (centres undefined) = > 100 µM (inactive)

# GI50 of Nc1nc(Cl)c2nnn(CC3CCC(CO)C3)c2n1 (centres undefined) = > 100 µM (inactive)

# GI50 of O=C(/C=C/c1ccccc1)CC1OC(=O)c2ccccc21 (centres undefined) = > 100 µM (inactive)

# GI50 of COc1cc2c(cc1C[C@H]1[C@@H]3C[C@H]4c5c(c6ccccc6n5C)C[C@@H]([C@@H]3CO[C@]1(C)OC(C)=O)N4C)c1c(n2C)C2C[C@H]3C(C(C)=O)=COC[C@H]3[C@H](C1)N2C = 3.54 µM (inactive)

# GI50 of CC(=O)[C@@H]1C/C(=C\OCc2ccccc2)O[C@H]1C = > 100 µM (inactive)

# GI50 of CN(C(=O)c1ccncc1)c1ccccc1 = > 100 µM (inactive)

----------
Test system: COLO 205
Experiment: NCI tumour cell line growth inhibition, 48 h
The source made the active and inactive calls. Cut-off read from the data, not from the text of the source: active = GI50 up to about 1.1 µM and inactive = higher.
quantity-measured: GI50

# GI50 of COC(=O)[C@H](CCSC)NC(=O)c1ccc(CNC(=O)/C=C/c2cccc(Oc3ccccc3)c2)cc1 = 21.9 µM (inactive)

# GI50 of O=C(N/N=C/c1cc(Br)ccc1O)N/N=C/c1cc(Br)ccc1O = 4.45 µM (inactive)

# GI50 of C=C/C(C)=C\CC1[C@](C)(O)CC[C@H]2C(C)(C)C(=O)CC[C@]12C (stereo not given in full) = 92.3 µM (inactive)

# GI50 of Nc1nc2cc(COc3ccc(C(=O)O)cc3)ccc2nc1-c1ccccc1 = > 10 µM (inactive)

# GI50 of O=C1C2=C(SCCS2)C(=O)c2ccccc21 = 1.61 µM (inactive)

# GI50 of Cc1ccc(-c2c(C#N)c(-c3ccccc3)n(NS(=O)(=O)c3ccc(C)cc3)c(=O)c2C#N)cc1 = > 100 µM (inactive)

# GI50 of N#CC1C2CCC3(CC2CCN1C(=O)c1ccccc1)OCCO3 (stereo not given) = > 100 µM (inactive)

# GI50 of Cc1cccc(CC(C)(C)C)c1NC(=O)C(=O)C(C(=O)c1ccc2ccccc2c1)C1OC(=O)c2ccccc21 (stereo not given) = 15.4 µM (inactive)

# GI50 of CCC(C)(C)C(=O)O[C@H]1C[C@@H](C)C=C2C=C[C@H](C)[C@H](CC[C@@H]3C[C@@H](O)CC(=O)O3)[C@H]21 = 12.1 µM (inactive)

# GI50 of O=C1c2cc3ccccc3cc2C2(c3ccc(Cl)cc3)NCCN12 (stereo not given) = 17.6 µM (inactive)

# GI50 of CC1C(c2ccc(F)cc2)c2cc3c(cc2OC1N1CCCC1)OCO3 (stereo not given) = 49.5 µM (inactive)

# GI50 of COc1cc2c(c(OC)c1OC)-c1c(cc3c(c1OC)OCO3)CC(C)C(C)(O)C2OC(=O)c1ccccc1 (stereo not given) = 22.5 µM (inactive)

# GI50 of COc1cc2oc3ccccc3c(=O)c2cc1CSc1ccccc1N = 15.8 µM (inactive)

# GI50 of CC(=O)NC(c1nc2cc(C)c(C)cc2[nH]1)c1nc2cc(C)c(C)cc2[nH]1 = 18 µM (inactive)

# GI50 of O=C1CC(Cl)c2c1csc2Br (stereo not given) = 15.2 µM (inactive)

# GI50 of O=C1Nc2ccccc2/C1=C/c1c(Cl)[nH]c2ccc(O)cc12 = 2.07 µM (inactive)

# GI50 of CCC/C(=N/NC(=O)C(N)=O)C(CC)C(=O)CCC(=O)N(Cc1ccccc1)Cc1ccccc1 (stereo not given) = > 100 µM (inactive)

# GI50 of COc1ccc(N2C(=O)C3c4[nH]c5ccc(F)cc5c4C4CCC(c5ccccc5)CC4C3C2=O)cc1 (stereo not given) = 31.1 µM (inactive)

# GI50 of COC(=O)c1cc2c(cc1CC1Cc3cc4c(cc3C1)CCC4)CCC2 = 40.5 µM (inactive)

# GI50 of Cc1c2cc[n+](CCN3CCCCC3)cc2c(C)c2c1[nH]c1ccc(O)cc12 = 1.66 µM (inactive)

# GI50 of Cc1nc2ccc([N+](=O)[O-])cc2c(=O)n1C(=S)Nc1cccc(Cl)c1 = 14 µM (inactive)

# GI50 of N#CC(C(=O)/C(=N\Nc1nc(S)nn1N)C(C#N)c1ccc(Cl)cc1)c1ccc(Cl)cc1 (stereo not given) = > 100 µM (inactive)

# GI50 of N#Cc1c(N)nc(Sc2ccccc2N)c(C#N)c1-c1ccc(Cl)cc1 = 28.5 µM (inactive)

# GI50 of COc1ccc2c3c(c4cc(OC)c(OC)cc4c2c1)CN1CCC[C@H]1[C@@H]3O = 0.039 µM (active)

# GI50 of O=C1NN(c2ccccc2)C(=O)C2C3c4ccccc4C(c4ccccc43)C12 (stereo not given) = 78.2 µM (inactive)

# GI50 of C=C1Cc2cc(OC)c(OC)c(OC)c2-c2ccc(SC)c(=O)cc21 = < 0.01 µM (active)

# GI50 of COC(=O)CNC(=O)c1cc(C)cc2c1Oc1c(cc(C)cc1C(=O)NCC(=O)OC)S2 = 28.4 µM (inactive)

# GI50 of [N-]=[N+]=NC1CC(n2ccc(N)nc2=O)OC1COP(=O)(O)OP(=O)(O)OP(=O)(O)O (stereo not given) = > 100 µM (inactive)

# GI50 of O=C1C(=O)N(c2cccc(C(F)(F)F)c2)C(=O)C(=O)C1c1nc2ccccc2s1 = > 100 µM (inactive)

# GI50 of CC/C(Cl)=N\OC(=O)Nc1ccc(C#N)cc1 = 1.82 µM (inactive)

# GI50 of Cc1cc(N(CCOS(C)(=O)=O)CCOS(C)(=O)=O)ccc1C=O = 1.39 µM (inactive)

# GI50 of COc1cc2c(cc1OC)C1=Cc3ccc(OC)c(OC)c3C(C#N)N1CC2 (stereo not given) = 18.2 µM (inactive)

# GI50 of CCOC(=O)C1=C(OC(OCC)C(CC)[Se]c2ccccc2)CCC1 (stereo not given) = 34.3 µM (inactive)

# GI50 of C[C@@]1(O)C[C@@H](N2C(=O)O[C@@H](c3ccccc3)[C@H]2c2ccccc2)[C@@H]1COCc1ccccc1 = 15 µM (inactive)

# GI50 of CC(C)Cc1ccc(C(C)/C=C2\CCC(CN3CCCCC3)C2=O)cc1 (stereo not given) = 5.81 µM (inactive)
